Target: GORASP2, Q9H8Y8
Experiment: holdup assay
Design: key: below the threshold = too weak to quantify, mostly under pKd 3.1 to 4
Conditions: plain residues with an end cap or a label only (N-terminal biotin on a linker: ado-ado)
experimental endpoint: pKd

binder="NVYGIESVKI [GRIA2, P42262]" reading=4.18
binder="LAHVKHKEQI [AQP3, Q92482]" reading="below the threshold"
binder="QLSFNTDTLC [ABCA2, Q9BZC7]" reading="below the threshold"
binder="KRPEMTSSSV [MUC3A, MUC3B, Q02505;Q9H195]" reading="below the threshold"
